Target: T1, MIK2 ectodomain (MIK2^LRR, residues 45-707) fused with a 6x His-MBP tag (Arabidopsis thaliana, UniProt Q8VZG8 45-707)
T1 chain: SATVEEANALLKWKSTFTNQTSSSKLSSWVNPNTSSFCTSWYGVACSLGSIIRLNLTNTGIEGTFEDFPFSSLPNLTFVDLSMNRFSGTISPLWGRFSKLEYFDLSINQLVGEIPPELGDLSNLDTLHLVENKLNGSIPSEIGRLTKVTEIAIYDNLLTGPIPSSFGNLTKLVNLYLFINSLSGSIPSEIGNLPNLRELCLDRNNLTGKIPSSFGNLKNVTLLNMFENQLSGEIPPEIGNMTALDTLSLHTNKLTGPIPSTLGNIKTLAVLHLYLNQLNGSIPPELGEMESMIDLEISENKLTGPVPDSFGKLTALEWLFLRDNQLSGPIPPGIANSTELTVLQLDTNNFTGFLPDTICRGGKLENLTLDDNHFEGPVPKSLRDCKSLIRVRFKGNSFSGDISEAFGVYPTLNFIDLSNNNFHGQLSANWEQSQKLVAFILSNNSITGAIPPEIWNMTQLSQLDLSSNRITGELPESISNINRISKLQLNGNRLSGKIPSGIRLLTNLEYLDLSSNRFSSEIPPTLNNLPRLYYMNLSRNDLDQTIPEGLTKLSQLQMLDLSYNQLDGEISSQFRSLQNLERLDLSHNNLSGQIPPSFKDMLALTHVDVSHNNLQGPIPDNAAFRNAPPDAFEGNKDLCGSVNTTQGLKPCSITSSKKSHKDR
Test: MST; in presence of competitor SCOOP12
Ends that are not written are not given here. * marks the point of attachment. 5FAM = O=C1OC2(c3ccc(O)cc3Oc3cc(O)ccc32)c2ccc(C(=O)*)cc21
MEASUREMENT_KIND: pKd
Please treat pKd as minus the base-10 logarithm of the molar concentration.

Lookup: Tell me the measured pKd of 5FAM-PNGDIFTGPSGSGHGGGR [SCOOP10 peptide labeled with FAM at the N-terminus (5'-FAM-SCOOP10)] , please.
Found: 3.55
